Taken from the NIST ThermoML archive (doi:10.1016/j.jct.2017.02.024).

experiment: mn = molality of the nth substance listed, in mol/kg; settings: 303.15 K; 100 kPa; Liquid; Capillary tube (Ostwald / Ubbelohde) method; m1 = 0.5
measurement_name: viscosity (mPa·s)

N=C(N)NCCC[C@H](N)C(=O)O [L-arginine] + O ... 1.019
C[C@@H](O)[C@H](N)C(=O)O [L-threonine] + O ... 0.936
C[C@H](N)C(=O)O [(S)-2-aminopropanoic acid] + O ... 0.898
NCC(=O)O [2-aminoacetic acid] + O ... 0.856

###

The compounds listed here are annotated with their mass density.
experiment: mn = molality of the nth substance listed, in mol/kg; settings: 313.15 K; 100 kPa; Liquid; Vibrating tube method; m1 = 0.4
measurement_name: mass density (kg/m3)

C[C@@H](O)[C@H](N)C(=O)O [L-threonine] + O ... 1008.22
N=C(N)NCCC[C@H](N)C(=O)O [L-arginine] + O ... 1010.71
OC[C@@H](O)[C@@H](O[C@H]1O[C@H](CO)[C@@H](O)[C@H](O)[C@H]1O)[C@H](O)[C@@H](O)CO [4-O-α-D-glucopyranosyl-D-glucitol] + O ... 1038.47
NCC(=O)O [2-aminoacetic acid] + O ... 1004.4
CC(C)[C@H](N)C(=O)O [L-valine] + O ... 1002.34
